Multi-source literature compilation: IC50 on Cyclin-dependent kinase 7 (Homo sapiens, UniProt P50613).
MEASURED_ATTRIBUTE: IC50

INSERT INTO measurements (compound, measured_attribute, reading) VALUES
  ('CC1=NNc2cc3cnc(Nc4ccc(S(N)(=O)=O)cc4)nc3n2C12CCCCC2', 'IC50', '> 1 µM'),
  ('CC(C(=O)Nc1cc(C2CC2)[nH]n1)c1ccc(-c2ccc(CNC(=O)/C=C/CN3CCOCC3)cc2)cc1 (single isomer, unassigned)', 'IC50', '1.56 µM'),
  ('CCn1cc(-c2ccnc(Nc3cccc(O)c3)n2)c2ccnc(Cl)c21', 'IC50', '3.28 µM'),
  ('CC(C(=O)Nc1cc(C2CC2)[nH]n1)c1ccc(-c2ccc(NC(=O)/C=C/CN3CCOCC3)nc2)cc1 (centres unmarked)', 'IC50', '1.7 µM'),
  ('O=C(Nc1cccc(Nc2ncc(Cl)c(-c3c[nH]c4ccccc34)n2)c1)C1CCCNC1 (centres unmarked)', 'IC50', '< 0.1 µM');

---

What follows is literature data on IC50 for UniProtKB P50613.
MEASURED_ATTRIBUTE: IC50

INSERT INTO results (molecule, measured_attribute, reading) VALUES
  ('CNC(=O)c1ccc(Nc2ncc3cc4n(c3n2)C2(CCCCC2)C(=O)NN4)cc1', 'IC50', '> 1000 nM'),
  ('CN(C)C/C=C/C(=O)NCc1ccc(C(=O)Nc2cccc(Nc3ncc(Cl)c(-c4c[nH]c5ccccc45)n3)c2)cc1', 'IC50', '36.2 nM'),
  ('C=CC(=O)N1CCC(CNC2CCC(Nc3ncc(Cl)c(-c4c[nH]c5ccccc45)n3)CC2)CC1 (stereo not shown)', 'IC50', '100 to 1000 nM'),
  ('NCCCCC(=O)N1CC[C@@H](Nc2ncc(Cl)c(-c3c[nH]c4ccccc34)n2)C1', 'IC50', '< 100 nM'),
  ('CN1NC(=O)C2(CCCCC2)n2c1cc1cnc(Nc3ccc(S(N)(=O)=O)cc3)nc12', 'IC50', '> 1000 nM'),
  ('CS(=O)(=O)NC/C=C/C(=O)Nc1ccc(CN2CCC(Nc3ncc(Cl)c(-c4c[nH]c5ccccc45)n3)CC2)cc1', 'IC50', '100 to 1000 nM'),
  ('C=CC(=O)N[C@@H]1CN[C@H](C(=O)N[C@H]2CCC[C@@H](Nc3ncc(Cl)c(-c4c[nH]c5ccccc45)n3)C2)C1', 'IC50', '< 100 nM'),
  ('CN(C)C/C=C/C(=O)Nc1ccc(CN2CCC(Nc3ncc(Cl)c(-c4c[nH]c5ccccc45)n3)CC2)cc1', 'IC50', '< 100 nM'),
  ('C=CC(=O)NC12CC(C(=O)N[C@H]3CCC[C@@H](Nc4ncc(Cl)c(-c5c[nH]c6ccccc56)n4)C3)(C1)C2 (racemic)', 'IC50', '> 1000 nM'),
  ('C=CC(=O)Nc1cccc2c(Nc3n[nH]c4c3CN(C(=O)N[C@H](CN(C)C)C3CCOCC3)C4(C)C)nccc12', 'IC50', '214 nM'),
  ('C=CC(=O)N1CCN(C[C@H]2CCC[C@@H](Nc3ncc(Cl)c(-c4c[nH]c5ccccc45)n3)C2)CC1', 'IC50', '< 100 nM'),
  ('C=CC(=O)Nc1ccc(C(=O)Nc2n[nH]c3c2CN(C(=O)NC2(CN(C)C)CC2)C3(C)C)cc1', 'IC50', '61.1 nM'),
  ('CN(C)C/C=C/C(=O)NCCCCC(=O)N1CC[C@@H](Nc2ncc(Cl)c(-c3c[nH]c4ccccc34)n2)C1', 'IC50', '< 100 nM'),
  ('C=CC(=O)Nc1ccc(NC(=O)C2CNCC(Nc3ncc(Cl)c(-c4c[nH]c5ccccc45)n3)C2)cc1 (racemic)', 'IC50', '< 100 nM'),
  ('C=CC(=O)Nc1ccc(C(=O)Nc2nn(C)c3c2CN(C(=O)N[C@H](CN(C)C)c2ccccc2)C3(C)C)c(OC)c1', 'IC50', '≥ 1000 nM'),
  ('C=CC(=O)Nc1ccc(C(=O)Nc2n[nH]c3c2CN(C(=O)N[C@H](CN(C)C)C2CCOCC2)C3(C)C)cc1', 'IC50', '12.8 nM');
